# Test system: NCI-H292 lung cancer cells
# Experiment notes: FDA drug screening, complete media vs cholesterol-free media with simvastatin (TABLE 2)
# Type: cell-based, human
# Test context: complete media minus cholesterol-free media + simvastatin; >0 enhanced anti-cancer activity, about 0 neutral, <0 antagonist
Structures can show the parent of a compound that is named as a salt.
Measurement type: Difference

{"Compound": "CCCC(CCC)C(N)=O [Valpromide]", "Measured target": "NCI-H292 lung cancer cells", "Measurement type": "Difference", "Experimental value": 0.31}
{"Compound": "CCCCOc1cc(C(=O)NCCN(CC)CC)c2ccccc2n1 [Dibucaine]", "Measured target": "NCI-H292 lung cancer cells", "Measurement type": "Difference", "Experimental value": 0.09}
{"Compound": "C[C@@H](NCCCc1cccc(C(F)(F)F)c1)c1cccc2ccccc12", "Measured target": "NCI-H292 lung cancer cells", "Measurement type": "Difference", "Experimental value": 0.06}
{"Compound": "CCC[C@@H]1C[C@@H](C(=O)N[C@@H]([C@H]2O[C@H](SC)[C@H](O)[C@@H](O)[C@H]2O)[C@H](C)Cl)N(C)C1 [Clindamycin (hydrochloride)]", "Measured target": "NCI-H292 lung cancer cells", "Measurement type": "Difference", "Experimental value": 0.06}
{"Compound": "CC1=C(C(=O)OC(C)C)C(c2cccc([N+](=O)[O-])c2)C(C(=O)OC2CN(C(c3ccccc3)c3ccccc3)C2)=C(N)N1 (stereo not shown)", "Measured target": "NCI-H292 lung cancer cells", "Measurement type": "Difference", "Experimental value": 0.21}
{"Compound": "COc1cc2c(cc1OC)C(=O)C(CC1CCN(Cc3ccccc3)CC1)C2 (stereo not shown) [Donepezil (Hydrochloride)]", "Measured target": "NCI-H292 lung cancer cells", "Measurement type": "Difference", "Experimental value": 0.15}
{"Compound": "CCC(=O)OCC(=O)[C@@]1(OC(=O)CC)[C@@H](C)C[C@H]2[C@@H]3CCC4=CC(=O)C=C[C@]4(C)[C@@]3(F)[C@@H](O)C[C@@]21C [Betamethasone dipropionate]", "Measured target": "NCI-H292 lung cancer cells", "Measurement type": "Difference", "Experimental value": 0.09}

----------
# System: NCI-H292 lung cancer cells
# Experiment notes: FDA drug screening, complete media vs cholesterol-free media with simvastatin (TABLE 2)
# Format: cell-based, human
# Test context: NCI-H292 cells, cholesterol-free media with simvastatin 0.04 μM; […]
In this section we review reported Cholesterol-free media + simvastatin (0.04 μM) values for a set of compounds.
Measurement type: Cholesterol-free media + simvastatin (0.04 μM)

{"Compound": "CC(=O)Oc1cc(C)c(OC(C)=O)c2ccccc12 [Vitamin K4]", "Experimental value": 0.7559}
{"Compound": "C1CCN2C[C@@H]3C[C@@H](CN4CCCC[C@@H]34)[C@H]2C1 [(−)-Sparteine]", "Experimental value": 1.054}
{"Compound": "C[C@H]1C[C@H]2[C@@H]3CCC4=CC(=O)C=C[C@]4(C)[C@@]3(Cl)[C@@H](O)C[C@]2(C)[C@@]1(O)C(=O)CO [Beclometasone]", "Experimental value": 0.7122}
{"Compound": "CCCCCCCCCCCCCCCC[n+]1ccccc1.O.[Cl-] [Cetylpyridinium (chloride monohydrate)]", "Experimental value": 0.1519}
{"Compound": "CC(C)[C@H](N)C(=O)O [L-Valine]", "Experimental value": 0.8399}
{"Compound": "COc1cc(C)c(/C=C/C(C)=C/C=C/C(C)=C/C(=O)O)c(C)c1C [Acitretin]", "Experimental value": 0.7241}
{"Compound": "CCN(C)C(=O)Oc1cccc([C@H](C)N(C)C)c1 [Rivastigmine]", "Experimental value": 1.229}
